- targetOrSystem: bovine trypsin (Bos taurus, UniProt P00760)
- Sequence (P00760 24-246): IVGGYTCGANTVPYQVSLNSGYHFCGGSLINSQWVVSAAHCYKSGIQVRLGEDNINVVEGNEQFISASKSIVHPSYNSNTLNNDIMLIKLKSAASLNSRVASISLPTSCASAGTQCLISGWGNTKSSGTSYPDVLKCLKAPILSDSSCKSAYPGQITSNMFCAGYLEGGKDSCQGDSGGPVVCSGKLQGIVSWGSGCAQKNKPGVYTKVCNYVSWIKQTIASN
- runDescription: Trypsin inhibitory activity of peptides (BApNA hydrolysis, OD405; IC50, Ki, residual activity)
- Assay type: biochemical
- measurementContext: peptide 0.98 μM
Bridge positions count the residues as written; N and C are the ends. Peptide text beside a SMILES is read from it.
measureName: Residual trypsin activity (%)
Value expressed in %; do not type the unit.

Prompt: Consider the molecule shown here: CC[C@H](C)[C@@H]1NC(=O)[C@@H]2CCCN2C(=O)[C@@H]2CCCN2C(=O)[C@H]([C@@H](C)CC)NC(=O)[C@H](CO)NC(=O)[C@H](CCCCN)NC(=O)[C@H]([C@@H](C)O)NC(=O)[C@H](C)NC(=O)[C@H](CCCNC(=N)N)NC(=O)CNC(=O)[C@@H](N)CSSC[C@@H](C(=O)N[C@@H](Cc2ccccc2)C(=O)O)NC1=O [BT9] (H-CGRATKSIPPICF-OH; disulfide 1-12; C-terminus assumed) What is its recorded Residual trypsin activity?
Response: −0.4

Prompt: Consider the molecule shown here: CC[C@H](C)[C@@H]1NC(=O)[C@@H]2CCCN2C(=O)[C@@H]2CCCN2C(=O)[C@H]([C@@H](C)CC)NC(=O)[C@H](CO)NC(=O)[C@H](CCCCN)NC(=O)[C@H]([C@@H](C)O)NC(=O)[C@H](C)NC(=O)[C@H](CCCNC(=N)N)NC(=O)[C@@H]2CCCN2C(=O)[C@@H](N)CSSC[C@@H](C(=O)N[C@@H](Cc2ccccc2)C(=O)O)NC1=O [BT66] (H-CPRATKSIPPICF-OH; disulfide 1-12; C-terminus assumed) What is its recorded Residual trypsin activity?
Response: 0.1

Prompt: Consider the molecule shown here: CC[C@H](C)[C@@H]1NC(=O)[C@@H]2CCCN2C(=O)[C@@H]2CCCN2C(=O)[C@H]([C@@H](C)CC)NC(=O)[C@H](CO)NC(=O)[C@H](CCCCN)NC(=O)[C@H]([C@@H](C)O)NC(=O)[C@H](C)NC(=O)[C@H](C)NC(=O)CNC(=O)[C@@H](N)CSSC[C@@H](C(=O)N[C@@H](Cc2ccccc2)C(=O)N2CCC[C@H]2C(=O)N[C@@H](CC(=O)O)C(=O)O)NC1=O [BT7] (H-CGAATKSIPPICFPD-OH; disulfide 1-12; N-terminus and C-terminus assumed) What is its recorded Residual trypsin activity?
Response: 5.7

Prompt: Consider the molecule shown here: CC[C@H](C)[C@@H]1NC(=O)[C@@H]2CCCN2C(=O)[C@@H]2CCCN2C(=O)[C@H]([C@@H](C)CC)NC(=O)[C@H](CO)NC(=O)[C@H](CCCCN)NC(=O)[C@H]([C@@H](C)O)NC(=O)[C@H](CCC(N)=O)NC(=O)[C@H](CCCNC(=N)N)NC(=O)CNC(=O)[C@@H](N)CSSC[C@@H](C(=O)N[C@@H](Cc2ccccc2)C(=O)O)NC1=O [BT54] (H-CGRQTKSIPPICF-OH; disulfide 1-12; C-terminus assumed) What is its recorded Residual trypsin activity?
Response: 0.1

Prompt: Consider the molecule shown here: CC[C@H](C)[C@@H]1NC(=O)[C@@H]2CCCN2C(=O)[C@@H]2CCCN2C(=O)[C@H]([C@@H](C)CC)NC(=O)[C@H](CO)NC(=O)[C@H](CCCCN)NC(=O)[C@H]([C@@H](C)O)NC(=O)[C@H](C)NC(=O)[C@H]([C@@H](C)O)NC(=O)CNC(=O)[C@@H](N)CSSC[C@@H](C(=O)N[C@@H](Cc2ccccc2)C(=O)O)NC1=O [BT25] (H-CGTATKSIPPICF-OH; disulfide 1-12; C-terminus assumed) What is its recorded Residual trypsin activity?
Response: 49.7

Prompt: Consider the molecule shown here: CC[C@H](C)[C@@H]1NC(=O)[C@@H]2CCCN2C(=O)[C@@H]2CCCN2C(=O)[C@H]([C@@H](C)CC)NC(=O)[C@H](C)NC(=O)[C@H](CCCCN)NC(=O)[C@H]([C@@H](C)O)NC(=O)[C@H](C)NC(=O)[C@H](CCCNC(=N)N)NC(=O)CNC(=O)[C@@H](N)CSSC[C@@H](C(=O)N[C@@H](Cc2ccccc2)C(=O)O)NC1=O [BT27] (H-CGRATKAIPPICF-OH; disulfide 1-12; C-terminus assumed) What is its recorded Residual trypsin activity?
Response: 1.3

Ref: patent US20230416329A1
